# dose excreted per entry
assayName: Percent of urinary recovery in rats after, oral administration of single 20 mg/kg dose in solution (N,range)
Format: ADME, organism-based
Parameters: dose 20 mg/kg, route oral
conditionLabel: rat, urine, read-out: Recovery
A number alone suffices; assume %.

# example entries with known answers
molecule	parameter	valueUnits	observedResult
O=C(COc1ccccc1)N[C@@H]1C(=O)N2C(C(=O)O)=C(Cl)CS[C@H]12	dose excreted	%	10.1
CC1(C)S[C@@H]2[C@H](NC(=O)COc3ccccc3)C(=O)N2[C@H]1C(=O)O [PENICILLIN V]	dose excreted	%	2.6

Next molecule, dose excreted to be filled in.
Enquiry: Provide one value: measured dose excreted of Nc1nc(CC(=O)N[C@@H]2C(=O)N3C(C(=O)O)=C(Cl)CS[C@H]23)cs1
Return: 16.2
